assay: NCI Yeast Anticancer Drug Screen. Data for the mec2-1 strain (AID 157); conditions: S. cerevisiae mec2-1 strain, at 11.0 µM
About 79,000 compounds went through this panel and 15% of them were active in at least one assay; those are over-represented in the sample as a whole. The source made the active and inactive calls. Cut-off read from the data, not from the text of the source: active = growth inhibition above about 70%; inactive = the rest.
Classes used: true (1) for active, false (0) for inactive

COc1ccc2nc3cccc([N+](=O)[O-])c3c(NCCNCCN(C)C)c2c1	false (0)
C=CCNC1=C2C[C@@H](C)C[C@H](OC)[C@H](O)[C@@H](C)/C=C(\C)[C@H](OC(N)=O)[C@@H](OC)/C=C\C=C(/C)C(=O)NC(=CC1=O)C2=O	true (1)
O=C(Nn1c(-c2ccccc2)nc2ccccc2c1=O)c1ccc(CS)cc1	false (0)
O=C1C(=C2CCCC2)CCC1CN1CCCCC1 (stereo not given)	false (0)
Cc1cccc2c(Cl)c3cccc(C)c3nc12	false (0)
CCN(CC)CCNc1ccc2nc(C)n3c4ccc(O)cc4c(=O)c1c23	false (0)
CC(=O)/C(=C\c1ccc(Cl)c(Cl)c1)C(=O)C(C)CN(C)C (stereo not given)	false (0)
Cc1nc2sc3c(c2c(=O)o1)CCCC3	false (0)
O=C1CCC(Cc2ccccc2)CN1 (stereo not given)	false (0)
CN1CCN(C(=O)c2cccc3cccc(C(=O)O)c23)CC1	false (0)
O=C1C[C@H]2[C@H](c3ccc(Br)cc3)[C@H]3C(=O)c4ccccc4NC(=O)[C@@H]3[C@@]2(O)c2ccccc2N1	false (0)
NCCOc1ccc(/C(=C(/Cl)c2ccccc2)c2ccccc2)cc1	false (0)
O=[N+]([O-])c1ccc(C(c2c[nH]c3ccccc23)c2c[nH]c3ccccc23)cc1	true (1)
COC(=O)C(Cl)(Cl)N=Nc1c(Cl)cc(Cl)c(C)c1Cl	true (1)
Fc1ccc(Nc2ccc3ccccc3c2)cc1	false (0)
CC1(c2ccccc2)O[C@@H]2C[C@H]3[C@@H]4CCC5=CC(=O)C=C[C@]5(C)[C@@]4(F)[C@@H](O)C[C@]3(C)[C@]2(C(=O)CO)O1 (stereo not given in full)	false (0)
CN(C)CC(CN(C)C)C(=O)/C=C/c1ccc(Cl)cc1Cl	false (0)
CCc1c(Cl)c(C)c(Cl)c(O)c1Cl	false (0)
COc1ccc(C(=O)/C=C\c2ccc(Cl)c(Cl)c2)cc1	false (0)
CS(=O)(=O)O.[Ag]	true (1)
O=C1/C(=C/c2ccc(Cl)c(Cl)c2)CNC/C1=C\c1ccc(Cl)c(Cl)c1	false (0)
O=S(=O)(NC1CCCC(c2ccccc2)C1)c1ccccc1 (stereo not given)	false (0)
Cc1cc(C)c(S(=O)(=O)c2ccc(Cl)cc2)c(C)c1	false (0)
c1ccc([P+](CCN2Cc3ccccc3C2)(c2ccccc2)c2ccccc2)cc1	false (0)
CC(C)[Si]1(C(C)C)OCC2OC(n3cnc4c(N)ncnc43)C(N)C2O[Si](C(C)C)(C(C)C)O1 (stereo not given)	false (0)
O=C(Cc1ccccc1)NNc1nc(NNC(=O)c2ccncc2)nc(Nc2ccc([N+](=O)[O-])cc2)n1	false (0)
CC1(C)CC(=O)C(C(=O)Nc2cccs2)=C(O)C1	false (0)
C[C@H](CCC1=NC(C)(C)CO1)C1CCC2[C@@H]3C(O)C[C@@H]4CC(O)CC[C@]4(C)C3CC[C@@]21C (stereo not given in full)	false (0)
CCCCCCCCCCCCCCCCCCNC(=S)/N=C/c1c(O)c2ccccc2[nH]c1=O	false (0)
O/N=c1/ccn(O)c2ccccc12	true (1)
Cc1cc(C)c2[s+]snc2c1	false (0)
O=C(CCSC1=NCCCN1)c1ccc(F)cc1	false (0)
O=C(O)c1cc2c(cc1S(=O)(=O)O)C1C(C3C2C2(Cl)C(Cl)=C(Cl)C3(Cl)C2(Cl)Cl)C2(Cl)C(Cl)=C(Cl)C1(Cl)C2(Cl)Cl (stereo not given)	false (0)
Cc1oc2ccccc2c(=O)c1Cn1nnc2ccccc21	false (0)
CCCCCCCCCCCCCCN	false (0)
CC(C)NCCCNc1c2ccccc2nc2cccc([N+](=O)[O-])c12	true (1)
O=C1SS(=O)c2ccccc21 (stereo not given)	false (0)
COc1ccc2nc3cccc([N+](=O)[O-])c3c(NCCCCCC(=O)O)c2c1	true (1)
O=C(NCCNCCNC(=O)c1cc(-c2ccccc2)nc2ccccc12)c1cc(-c2ccccc2)nc2ccccc12	false (0)
COc1cc(C2C3=C(COC3=O)Oc3cc4c(cc32)OCO4)cc(OC)c1O (stereo not given)	false (0)
COc1ccc2cc3c4cc5c(cc4cc[n+]3cc2c1OC)OCO5	false (0)
COc1ccc2c3c1OC(C)C31CC(=O)CCC1CC2 (stereo not given)	false (0)
O=c1c2ccccc2nc(-c2cccc([N+](=O)[O-])c2)n1O	false (0)
O=C(C#Cc1ccccc1)Nc1ccccc1	false (0)
O=[N+]([O-])c1ccc2[nH]c3c(-c4ccccc4)nccc3c2c1	true (1)

The measured values listed here are drawn from PubChem BioAssay (NCI).
